Source of measurements: patent US10947225B2

biological target: p110beta (Homo sapiens, UniProt P42338); experiment: PI3K kinase assay (ADP-Glo), p110beta; assay type: biochemical; details: Exp. 1; final ATP 25 μM; read-out: IC50 p110beta Exp. 1
Sequence (P42338 whole entry): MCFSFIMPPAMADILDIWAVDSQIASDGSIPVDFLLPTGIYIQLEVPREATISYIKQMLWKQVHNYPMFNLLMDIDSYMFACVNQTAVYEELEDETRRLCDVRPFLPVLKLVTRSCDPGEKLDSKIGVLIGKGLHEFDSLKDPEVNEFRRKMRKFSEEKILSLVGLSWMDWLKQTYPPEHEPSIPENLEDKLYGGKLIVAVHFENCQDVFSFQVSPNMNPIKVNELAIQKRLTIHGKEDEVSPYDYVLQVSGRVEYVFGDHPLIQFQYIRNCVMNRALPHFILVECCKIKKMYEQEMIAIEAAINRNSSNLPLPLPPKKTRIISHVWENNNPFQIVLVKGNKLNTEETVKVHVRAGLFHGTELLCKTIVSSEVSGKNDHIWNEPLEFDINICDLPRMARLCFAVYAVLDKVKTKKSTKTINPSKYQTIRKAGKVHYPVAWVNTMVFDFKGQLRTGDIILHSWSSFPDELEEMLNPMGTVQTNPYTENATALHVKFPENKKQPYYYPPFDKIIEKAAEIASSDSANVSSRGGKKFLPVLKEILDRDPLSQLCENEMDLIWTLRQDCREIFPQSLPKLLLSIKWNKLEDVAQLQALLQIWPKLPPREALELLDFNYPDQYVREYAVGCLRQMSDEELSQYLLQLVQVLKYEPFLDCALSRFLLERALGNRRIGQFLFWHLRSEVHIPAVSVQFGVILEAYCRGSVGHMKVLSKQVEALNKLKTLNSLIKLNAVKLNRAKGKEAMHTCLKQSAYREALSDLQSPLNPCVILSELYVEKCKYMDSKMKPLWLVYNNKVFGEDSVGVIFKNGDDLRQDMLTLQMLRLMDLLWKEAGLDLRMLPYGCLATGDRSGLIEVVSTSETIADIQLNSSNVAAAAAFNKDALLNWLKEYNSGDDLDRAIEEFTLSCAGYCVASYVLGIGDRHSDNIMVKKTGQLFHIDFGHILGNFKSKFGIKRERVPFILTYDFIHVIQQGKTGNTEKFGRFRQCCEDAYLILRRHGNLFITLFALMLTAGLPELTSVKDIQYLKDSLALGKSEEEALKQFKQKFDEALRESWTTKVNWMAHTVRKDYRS
Sequence (P27986 whole entry partner): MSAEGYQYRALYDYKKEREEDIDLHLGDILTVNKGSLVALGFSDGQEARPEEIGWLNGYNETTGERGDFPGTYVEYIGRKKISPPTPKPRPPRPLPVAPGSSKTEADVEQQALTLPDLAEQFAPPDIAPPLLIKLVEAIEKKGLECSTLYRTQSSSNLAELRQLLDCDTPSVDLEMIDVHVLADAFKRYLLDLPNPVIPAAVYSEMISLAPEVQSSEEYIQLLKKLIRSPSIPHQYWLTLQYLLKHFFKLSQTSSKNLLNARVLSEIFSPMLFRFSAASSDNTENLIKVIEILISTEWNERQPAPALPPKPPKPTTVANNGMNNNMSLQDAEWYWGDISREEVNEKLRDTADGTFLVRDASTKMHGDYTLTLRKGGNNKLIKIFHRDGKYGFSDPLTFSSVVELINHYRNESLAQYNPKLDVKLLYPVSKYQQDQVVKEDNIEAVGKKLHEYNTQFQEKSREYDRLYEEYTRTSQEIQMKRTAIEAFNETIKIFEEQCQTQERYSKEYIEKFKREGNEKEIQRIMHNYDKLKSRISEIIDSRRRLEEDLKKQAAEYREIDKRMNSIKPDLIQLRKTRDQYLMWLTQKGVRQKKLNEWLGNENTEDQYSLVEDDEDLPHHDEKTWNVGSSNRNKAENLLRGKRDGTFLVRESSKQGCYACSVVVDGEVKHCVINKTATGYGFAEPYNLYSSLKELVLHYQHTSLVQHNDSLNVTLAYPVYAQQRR
Value Kind: IC50 (nM)

Completed entries (count: 2):
# Compound, Units Text, IC50
rows = [
    ("CN(C)c1ncc(-c2cnc3ccc(-c4cncc(NS(=O)(=O)c5ccccc5)c4)cn23)cn1", "nM", 190),
    ("O=S(=O)(Nc1cncc(-c2ccc3ncc(-c4ncccn4)n3c2)c1)c1ccccc1", "nM", 27.6),
]

a = Nc1ccc(-c2cccc3c(=O)cc(N4CCOCC4)oc23)cc1 [PI 828, reference compound]
b = O=S(=O)(Nc1cncc(-c2ccc3ncc(-c4cnc5ccnn5c4)n3c2)c1)c1ccccc1
c = COc1ncc(-c2cnc3ccc(-c4cncc(NS(=O)(=O)c5ccccc5)c4)cn23)cn1
Query block: Kindly order the items shown according to IC50, from the highest value down. Give the labels in the order specified.
Result block: b, a, c

---

Parameter pKi, tested on UniProtKB P42336, listed per item.
Sequence (P42336 whole entry): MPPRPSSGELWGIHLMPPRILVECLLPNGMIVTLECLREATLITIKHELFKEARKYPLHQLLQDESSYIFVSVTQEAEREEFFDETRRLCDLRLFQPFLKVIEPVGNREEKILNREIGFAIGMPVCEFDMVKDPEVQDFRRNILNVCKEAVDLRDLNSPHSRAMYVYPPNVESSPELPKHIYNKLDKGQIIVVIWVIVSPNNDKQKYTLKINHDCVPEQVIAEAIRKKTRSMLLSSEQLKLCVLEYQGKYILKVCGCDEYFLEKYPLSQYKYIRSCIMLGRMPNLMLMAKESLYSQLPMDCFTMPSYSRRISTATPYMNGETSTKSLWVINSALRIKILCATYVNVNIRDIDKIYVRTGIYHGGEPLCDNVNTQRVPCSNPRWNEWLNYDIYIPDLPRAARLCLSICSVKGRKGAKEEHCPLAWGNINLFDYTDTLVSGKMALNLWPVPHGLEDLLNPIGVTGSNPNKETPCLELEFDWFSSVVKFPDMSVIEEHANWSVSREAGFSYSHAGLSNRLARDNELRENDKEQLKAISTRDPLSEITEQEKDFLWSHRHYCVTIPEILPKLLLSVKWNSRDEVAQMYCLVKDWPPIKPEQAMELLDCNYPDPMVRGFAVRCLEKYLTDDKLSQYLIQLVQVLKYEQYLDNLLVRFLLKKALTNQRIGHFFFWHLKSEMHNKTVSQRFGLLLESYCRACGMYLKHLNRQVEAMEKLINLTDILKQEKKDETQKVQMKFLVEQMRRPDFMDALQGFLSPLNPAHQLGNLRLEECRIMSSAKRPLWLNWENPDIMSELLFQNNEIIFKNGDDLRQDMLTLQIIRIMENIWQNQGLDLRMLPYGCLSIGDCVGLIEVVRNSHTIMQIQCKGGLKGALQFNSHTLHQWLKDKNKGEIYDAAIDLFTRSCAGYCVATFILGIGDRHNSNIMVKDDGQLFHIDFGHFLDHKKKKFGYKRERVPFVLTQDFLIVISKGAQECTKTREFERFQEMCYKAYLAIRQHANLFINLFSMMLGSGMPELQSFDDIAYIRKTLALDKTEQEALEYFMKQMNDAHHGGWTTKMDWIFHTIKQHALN
Sequence (P27986 whole entry partner): as the sequence (P27986 whole entry partner) above
pKi: −log10 of the molar value.
Value Kind: pKi

# example entries with known answers
# Molecule, Value Kind, Endpoint Result
rows = [
    ("O=S(=O)(Nc1cncc(-c2ccc3ncc(-c4ncccn4)n3c2)c1)c1ccccc1 [drawing 19]", "pKi", 7.00),
    ("CN(C)c1ncc(-c2cnc3ccc(-c4cncc(NS(=O)(=O)c5ccccc5)c4)cn23)cn1 [drawing 16]", "pKi", 6.61),
    ("O=S(=O)(Nc1cncc(-c2ccc3ncc(-c4cnc5ccnn5c4)n3c2)c1)c1ccccc1 [drawing 18]", "pKi", 6.48),
]

a = COc1ncc(-c2cnc3ccc(-c4cncc(NS(=O)(=O)c5ccccc5)c4)cn23)cn1 [drawing 17]
b = CCc1nc(-c2cnc3ccc(-c4cncc(NS(=O)(=O)c5ccccc5)c4)cn23)no1
Query block: Looking only at measured pKi, which entry is lower, a or b ? # respond with the chosen item's label
Result block: a

---

target: p110beta (Homo sapiens, UniProt P42338); test: PI3K kinase assay (ADP-Glo), p110beta; format: biochemical; details: Exp. 2; final ATP 25 μM; read-out: IC50 p110beta Exp. 2
pIC50: −log10 of the molar value.
Value Kind: pIC50

These solved cases illustrate the format of a correct answer.
# Compound, Assay Target, pIC50
data = [
    ("CN(C)c1ncc(-c2cnc3ccc(-c4cncc(NS(=O)(=O)c5ccccc5)c4)cn23)cn1 [TK2-71pZD2-86 (6a)]", "p110beta (Homo sapiens, UniProt P42338)", 6.73),
    ("Nc1ccc(-c2cccc3c(=O)cc(N4CCOCC4)oc23)cc1 [PI 828, reference compound]", "p110beta (Homo sapiens, UniProt P42338)", 6.62),
    ("COc1ncc(-c2cnc3ccc(-c4cncc(NS(=O)(=O)c5ccccc5)c4)cn23)cn1 [TK2-67p3-36 (6b)]", "p110beta (Homo sapiens, UniProt P42338)", 6.73),
]

I = O=S(=O)(Nc1cncc(-c2ccc3ncc(-c4ncccn4)n3c2)c1)c1ccccc1 [TK2-94p3-47 (6d)]
II = O=S(=O)(Nc1cncc(-c2ccc3ncc(-c4cnc5ccnn5c4)n3c2)c1)c1ccccc1 [TK2-130p3-37 (6c)]
Query block: Of I and II , which carries the smaller reported pIC50 figure? Give the label of your selection.
Result block: II
(II: 6.32, I: 7.35)
